- System: barnyardgrass (Echinochloa crus-galli)
- measurement.notes: Test A postemergence
- Assay type: in vivo
- test.parameters: Echinochloa crus-galli, post-emergence, 240 h, 125 g ai/ha, Postemergence; visual injury after approximately 10 d; 0 to 100 scale where 0 is no effect and 100 is complete control; read-out: Plant response rating, Barnyardgrass
endpoint.label: pest or weed control at 125 g/ha (%)
Numeric answer only, unit % assumed.

Solved cases below.
Give its pest or weed control at 125 g/ha value. Item: CN1C[C@H](c2csc(C(F)(F)F)c2)[C@@H](C(=O)Nc2ccccc2F)C1=O [Compound 958]
70

Look up pest or weed control at 125 g/ha for this compound: Cc1ccc([C@H]2CN(C)C(=O)[C@@H]2C(=O)Nc2cccc(F)c2C)cc1Cl [Compound 1014]
90

Any idea what pest or weed control at 125 g/ha was measured for CN1C[C@H](c2ccc(C(F)(F)F)cc2)[C@@H](C(=O)Nc2ccccc2Br)C1=O [Compound 943] ?
70

I would be grateful if you could share the reported pest or weed control at 125 g/ha for Cc1cc([C@H]2CN(C)C(=O)[C@@H]2C(=O)Nc2ccc(F)cc2F)ccc1Cl [Compound 930] .
80

Further cases:
Which pest or weed control at 125 g/ha value is on record for O=C(Nc1cccc(F)c1F)[C@H]1C(=O)N(C2CC2)CC[C@@H]1c1ccc(F)cc1 [Compound 1003] ?
0

Which pest or weed control at 125 g/ha value belongs to COc1ccc([C@H]2CN(C)C(=O)[C@@H]2C(=O)Nc2ccccc2F)cc1C(F)(F)F [Compound 984] ?
100

What does the record list as pest or weed control at 125 g/ha for Cc1ccc([C@H]2CNC(=O)[C@@H]2C(=O)Nc2ccccc2F)cc1C [Compound 1033] ?
90

Query: pest or weed control at 125 g/ha; subject: Cc1cc([C@H]2CNC(=O)[C@@H]2C(=O)Nc2cccc(F)c2F)ccc1C(F)(F)F [Compound 1040]
80

====

- Test system: giant foxtail (Setaria faberii)
- measurement.notes: Test A preemergence
- Assay type: in vivo
- test.parameters: Setaria faberi, pre-emergence, 240 h, 125 g ai/ha, Preemergence, visual injury rating after approximately 10 d; read-out: Foxtail, Giant plant response rating (0 to 100 scale, 0 is no effect, 100 is complete control)
Flag rule - pest or weed control at 125 g/ha less than 50% flags YES; the remaining entries get NO.

Given CSc1ccccc1NC(=O)[C@H]1C(=O)N(C2CC2)CC[C@@H]1c1ccc(F)cc1 , is recorded pest or weed control at 125 g/ha strictly lower than 50%?
YES

Find out if reported pest or weed control at 125 g/ha for CSc1ccccc1NC(=O)[C@H]1C(=O)NC[C@@H]1c1ccc(C(F)(F)F)cn1 is less than 50%
YES

Determine if COc1cccc([C@H]2CNC(=O)[C@@H]2C(=O)Nc2cccc(F)c2F)c1F shows pest or weed control at 125 g/ha strictly lower than 50%.
NO

Is the reported pest or weed control at 125 g/ha for CSc1ccccc1NC(=O)[C@H]1C(=O)NC[C@@H]1c1ccc(C)c(C)c1 strictly below 50%?
NO

Hello, is pest or weed control at 125 g/ha of the following compound strictly smaller than 50%? CCOc1cccc([C@H]2CN(C)C(=O)[C@@H]2C(=O)Nc2ccc(F)cc2F)c1
NO

For this compound, is pest or weed control at 125 g/ha lower than 50%? CSc1ccccc1NC(=O)[C@H]1C(=O)N(C)C[C@@H]1c1cc(F)cc(Cl)c1
NO

Confirm or reject: pest or weed control at 125 g/ha of COc1cc(OC)cc([C@H]2CN(C)C(=O)[C@@H]2C(=O)Nc2ccccc2SC)c1 lies strictly below 50%
NO
